From: patent US20120129766A1

Biological target: T1, human β-klotho (human, UniProt Q86Z14 1-1044)
T1 sequence (looked up): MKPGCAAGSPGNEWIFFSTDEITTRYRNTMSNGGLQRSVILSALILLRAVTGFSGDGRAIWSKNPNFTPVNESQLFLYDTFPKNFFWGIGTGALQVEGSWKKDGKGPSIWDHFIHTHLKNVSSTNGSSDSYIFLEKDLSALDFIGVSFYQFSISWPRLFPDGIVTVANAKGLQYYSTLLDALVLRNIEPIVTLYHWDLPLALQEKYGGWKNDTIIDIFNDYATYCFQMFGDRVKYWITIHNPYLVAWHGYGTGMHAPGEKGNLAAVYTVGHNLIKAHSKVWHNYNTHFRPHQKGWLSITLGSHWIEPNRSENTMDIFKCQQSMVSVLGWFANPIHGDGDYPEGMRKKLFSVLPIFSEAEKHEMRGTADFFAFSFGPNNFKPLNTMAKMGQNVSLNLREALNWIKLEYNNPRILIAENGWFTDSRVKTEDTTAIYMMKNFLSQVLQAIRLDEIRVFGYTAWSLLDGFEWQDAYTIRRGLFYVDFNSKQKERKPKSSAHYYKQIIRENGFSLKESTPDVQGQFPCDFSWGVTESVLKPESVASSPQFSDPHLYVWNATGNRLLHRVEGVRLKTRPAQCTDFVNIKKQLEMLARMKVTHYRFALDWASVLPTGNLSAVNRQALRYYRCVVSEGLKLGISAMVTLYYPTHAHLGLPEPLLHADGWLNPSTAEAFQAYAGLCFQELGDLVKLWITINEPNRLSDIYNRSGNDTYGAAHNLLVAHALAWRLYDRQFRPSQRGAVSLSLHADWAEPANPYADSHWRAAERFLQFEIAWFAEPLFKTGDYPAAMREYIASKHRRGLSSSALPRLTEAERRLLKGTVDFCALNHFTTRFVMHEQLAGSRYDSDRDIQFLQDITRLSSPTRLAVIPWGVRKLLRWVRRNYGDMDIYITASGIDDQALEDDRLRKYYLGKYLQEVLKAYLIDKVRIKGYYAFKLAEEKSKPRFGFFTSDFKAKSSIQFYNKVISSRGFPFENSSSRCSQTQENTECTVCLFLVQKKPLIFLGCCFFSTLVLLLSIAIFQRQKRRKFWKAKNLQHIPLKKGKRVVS
Test: cell-based or functional assay
attribute_measured: Fold-WT (EC50 of variant / EC50 of FGF21-WT) (fold)
Note: unit fold is implicit; provide only the numeric part.

Illustrative cases are given below, each with its answer.
hFGF21(33-209)-V12 (ligand) DSSPLLQFGGQVRQRYLYTDDDQQTEAHLEIREDGTVGGAAHQSPESLLQLKALKPGVIQILGVQTSRFLCQKPDGALYGSLHFDPEACSFRELLLENGYNVYQSEAHGLPLHLPGNRSPHRDPAPQGPARFLPLPGLPPALPEPPGILAPQPPDVGSSDPLAMVGPSQGRSPSYAS: 5
hFGF21(33-209)-WT-CH (ligand) DSSPLLQFGGQVRQRYLYTDDAQQTEAHLEIREDGTVGGAADQSPESLLQLKALKPGVIQILGVKTSRFLCQRPDGALYGSLHFDPEACSFRELLLEDGYNVYQSEAHGLPLHLPGNKSPHRDPAPRGPARFLPLPGLPPALPEPPGILAPQPPDVGSSDPLSMVGPSQGRSPSYAS: 1

Moving on to the next binder.
QUERY: What does the data say about its Fold-WT (EC50 of variant / EC50 of FGF21-WT)? Entry: hFGF21(33-209)-V76-154C-40 kDa-bPEG-MA (ligand, 40 kDa branched maleimido-PEG on Cys 154 (numbered on SEQ ID NO:1)) DSSPLLQFGGQVRQRYLYTDDAQETEAHLEIREDGTVGGAAHQSPESLLELKALKPGVIQILGVKTSRFLCQKPDGALYGSLHFDPEACSFRELLLEDGYNVYQSEAHGLPLHLPGNRSPHCDPAPQGPARFLPLPGLPPALPEPPGILAPQPPDVGSSDPLAMVGPSQGRSPSYAS
RESULT: 2.4
